System: STAPHYLOCOCCUS AUREUS CMX 642A
protocolDescription: In vitro antibacterial activity (MIC), agar dilution
Type: cell-based
testParameters: S. aureus CMX 642A; BHI agar, 35-37 °C, 20-24 h
propertyLabel: minimum inhibitory concentration (MIC)
Just the number, please, no unit after it.

Form field minimum inhibitory concentration (MIC), entry `CC[C@H]1OC(=O)[C@H](C)C[C@H](C)[C@@H](O[C@@H]2O[C@H](C)C[C@H](N(C)C)[C@H]2O)[C@](C)(OC)C[C@@H](C)C(=NOCOCCOC)[C@H](C)[C@@H](O)[C@]1(C)O` : 0.2

Form field minimum inhibitory concentration (MIC), entry `CC[C@H]1OC(=O)[C@H](C)C[C@H](C)[C@@H](O[C@@H]2O[C@H](C)C[C@H](N(C)C)[C@H]2O)[C@](C)(OC)C[C@@H](C)C(=NO)[C@H](C)[C@@H](O)[C@]1(C)O` : 12.5

Form field minimum inhibitory concentration (MIC), entry CC[C@H]1OC(=O)[C@H](C)[C@@H](O[C@H]2C[C@@](C)(OC)[C@@H](O)[C@H](C)O2)[C@H](C)[C@@H](O[C@@H]2O[C@H](C)C[C@H](N(C)C)[C@H]2O)[C@](C)(O)C[C@@H](C)C(=O)[C@H](C)[C@@H](O)[C@]1(C)O [Ery A, Erythromycin A, reference compound] : 0.2

---

Tested on: STREPTOCOCCUS PYOGENES PIU 2548
protocolDescription: In vitro antibacterial activity (MIC), agar dilution
Format: cell-based
testParameters: S. pyogenes PIU 2548; BHI agar, 35-37 °C, 20-24 h
propertyLabel: minimum inhibitory concentration (MIC)
Just the number, please, no unit after it.

Form field minimum inhibitory concentration (MIC), entry CC[C@H]1OC(=O)[C@H](C)C[C@H](C)[C@@H](O[C@@H]2O[C@H](C)C[C@H](N(C)C)[C@H]2O)[C@](C)(OC)C[C@@H](C)C(=O)[C@H](C)[C@@H](O)[C@]1(C)O [Ex. 1] : 3.1

Form field minimum inhibitory concentration (MIC), entry CC[C@H]1OC(=O)[C@H](C)[C@@H](O[C@H]2C[C@@](C)(OC)[C@@H](O)[C@H](C)O2)[C@H](C)[C@@H](O[C@@H]2O[C@H](C)C[C@H](N(C)C)[C@H]2O)[C@](C)(O)C[C@@H](C)C(=O)[C@H](C)[C@@H](O)[C@]1(C)O [Ery A, Erythromycin A, reference compound] : 6.2

---

Tested on: ESCHERICHIA COLI JUHL
protocolDescription: In vitro antibacterial activity (MIC), agar dilution
Assay type: cell-based
testParameters: E. coli JUHL; BHI agar, 35-37 °C, 20-24 h
Hi there, I'd appreciate the recorded minimum inhibitory concentration (MIC) for every entry that follows.

Form field minimum inhibitory concentration (MIC), entry CC[C@H]1OC(=O)[C@H](C)C[C@H](C)[C@@H](O[C@@H]2O[C@H](C)C[C@H](N(C)C)[C@H]2O)[C@](C)(OC)C[C@@H](C)C(=O)[C@H](C)[C@H]2OC(=O)O[C@@]21C [Ex. 3] : > 100

Form field minimum inhibitory concentration (MIC), entry CC[C@H]1OC(=O)[C@H](C)C[C@H](C)[C@@H](O[C@@H]2O[C@H](C)C[C@H](N(C)C)[C@H]2O)[C@](C)(OC)C[C@@H](C)C(=O)[C@H](C)[C@@H](O)[C@]1(C)O [Ex. 1] : > 100

Form field minimum inhibitory concentration (MIC), entry CC[C@H]1OC(=O)[C@H](C)C[C@H](C)[C@@H](O[C@@H]2O[C@H](C)C[C@H](N(C)C)[C@H]2O)[C@](C)(OC)C[C@@H](C)C(=NOCOCCOC)[C@H](C)[C@@H](O)[C@]1(C)O [Ex. 8] : 50

Form field minimum inhibitory concentration (MIC), entry CC[C@H]1OC(=O)[C@H](C)C[C@H](C)[C@@H](O[C@@H]2O[C@H](C)C[C@H](N(C)C)[C@H]2O)[C@](C)(OC)C[C@@H](C)C(=O)[C@H](C)[C@H]2N(CCCCc3ccccc3)C(=O)O[C@]12C [Ex. 4] : > 100

Form field minimum inhibitory concentration (MIC), entry CC[C@H]1OC(=O)[C@H](C)C[C@H](C)[C@@H](O[C@@H]2O[C@H](C)C[C@H](N(C)C)[C@H]2O)[C@](C)(OC)C[C@@H](C)C(=NO)[C@H](C)[C@@H](O)[C@]1(C)O [Ex. 2] : > 100
